- Tested on: Inhibin beta A chain (activin A)
- experiment_description: INHBA (activin A) binders on microarrays, primary screen, biochemical, small-molecule microarray, 635 nm fluorescence scan (AID 1107);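 also: mouse activin A protein probed at 4.33 µg/mL on printed slides; score merges bound-protein fluorescence near 667 nm with spot signal-to-noise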
- condition_details: small-molecule microarray binding, higher = more signal
Give YES when the value for composite z-score is at least 0.2. Give NO when it is less.

stdin: Is it the case that CC(=O)Nc1ccc([C@@H]2N[C@H](C(=O)O)CC[C@H]2C)cc1 has composite z-score reaching or exceeding 0.2?
stdout: NO

stdin: Is it the case that COC(=O)CC=C[C@@H](C)[C@@H](C=NO[C@@H](C)c1cn([C@H](CO)Cc2ccccc2)nn1)OC has composite z-score reaching or exceeding 0.2?
stdout: NO

stdin: Is it the case that CC(CCN1CCCCc2nc(C)c(C)cc21)=NO[C@H](C)c1cn([C@H](CO)Cc2ccccc2)nn1 has composite z-score reaching or exceeding 0.2?
stdout: YES

stdin: Is it the case that C[C@@H](c1ccccc1)N1C(=O)[C@H]2[C@H]3[C@H](O)[C@H](O)CC(=NO[C@@H]4O[C@H](CO)[C@@H](O)[C@H](O)[C@H]4O)[C@H]3CC[C@H]2C1=O has composite z-score reaching or exceeding 0.2?
stdout: NO

stdin: Is it the case that COC(=O)[C@H](C)NC(=O)CCC1CC(OC(=O)NCc2ccc3c(c2)OCO3)CC2(CCCC(COC(=O)NCc3cccc(C(F)(F)F)c3)O2)O1 (some centres undefined) has composite z-score reaching or exceeding 0.2?
stdout: NO

stdin: Is it the case that CO[C@H]1COC(=O)[C@H](C)NC(=O)CC=C[C@@H](C)[C@H](OC)COC(=O)[C@@H](OCc2ccccc2)C=C[C@@H]1C has composite z-score reaching or exceeding 0.2?
stdout: YES

stdin: Is it the case that COC(=O)CC=C[C@@H](C)[C@@H](C=NO[C@H](C)c1cn([C@H](CO)Cc2ccccc2)nn1)NS(=O)(=O)c1ccc(C)cc1 has composite z-score reaching or exceeding 0.2?
stdout: NO

stdin: Is it the case that C[C@H]1COC(=O)[C@@H]2CCCN2C(=O)[C@@H](C)COC(=O)[C@H](Cc2ccccc2)NC1=O has composite z-score reaching or exceeding 0.2?
stdout: NO

stdin: Is it the case that CC(C)=CCCC(C)=CCON=C1C[C@@H](O)[C@@H](O)[C@@H]2[C@@H]3C(=O)N(Cc4ccccc4)C(=O)[C@@H]3CC[C@@H]12 has composite z-score reaching or exceeding 0.2?
stdout: YES

stdin: Is it the case that CO[C@H]1COC(=O)CCC[C@@H](C)[C@H](OC)COC(=O)[C@@H]2CCCN2C(=O)CC=C[C@@H]1C has composite z-score reaching or exceeding 0.2?
stdout: YES

stdin: Is it the case that CCOC(=O)NN=C1C[C@@H](O)[C@@H](O)[C@@H]2[C@@H]3C(=O)N(Cc4ccccc4)C(=O)[C@@H]3CC[C@H]12 has composite z-score reaching or exceeding 0.2?
stdout: NO

stdin: Is it the case that C#CCCCON=C1C[C@@H](O)[C@@H](O)[C@@H]2[C@@H]3C(=O)N(C(C)(C)C)C(=O)[C@@H]3CC[C@H]12 has composite z-score reaching or exceeding 0.2?
stdout: YES

stdin: Is it the case that CCN1C(=O)[C@H]2[C@H]3[C@H](O)[C@H](O)CC(=NO[C@@H](C)c4cn([C@H](CO)Cc5ccccc5)nn4)[C@@H]3CC[C@H]2C1=O has composite z-score reaching or exceeding 0.2?
stdout: NO

Just for reference, PubChem BioAssay is where these values come from.
